assay: recombinant barcode read abundance after kanamycin selection (control-corrected) (log10(CPM+1)); higher = more efficient recombination; sequences stand for … in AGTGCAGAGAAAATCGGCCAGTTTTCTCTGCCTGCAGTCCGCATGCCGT…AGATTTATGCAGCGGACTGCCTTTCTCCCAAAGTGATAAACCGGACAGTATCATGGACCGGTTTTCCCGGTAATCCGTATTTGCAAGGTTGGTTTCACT; site = the 11-nt target
Overview of reported recombinant barcode read abundance (log10) across a group of sequences:
Please reply with the value in numeric form only.

Some sequences with known recombinant barcode read abundance (log10) results, for comparison:
GTGGCTTCTTGGGTTCTAACCTGTTGCCT (site GTGGCTTCTAG); 0.389
GGGCAACCTTGGGTTCTAACCTGTTGCGT (site GGGCAGCCTAG); 0.117
TGGGACACTTGGGTTCTAACCTGTTGCCG (site TGGGACACTCG); 2.48
ACCAGAGCTTGGGTTCTAACCTGTTGCCT (site ACGAGAGCTAG); 0.0525
CTAACCGCTTGGGTTCTAACCTGTTGCCT (site CTAACCGCTAG); 1.67

# lookup: recombinant barcode read abundance (log10) of CCTAACCCTTGGGTTCTAACCTGTTGCGT (site CCTAACCCTAC) 1.85

# lookup: recombinant barcode read abundance (log10) of CTTGGACCTTGGGTTCTAACCTGTTGCCT (site CTTGGATCTAG) 0.113

# lookup: recombinant barcode read abundance (log10) of TCTGATTCTTGGGTTCTAACCTGTTGCCG (site TCTGATTCTCG) 0.197

# lookup: recombinant barcode read abundance (log10) of CGATGGACTTGGGTTCTAACCTGTTGCTG (site CGATGGACTCA) 1.81

----------
experiment: recombinant UMI read abundance after kanamycin selection (control-corrected) (log10(CPM+1)); higher = more efficient recombination; extreme values may be limits of the assay; sequences stand for … in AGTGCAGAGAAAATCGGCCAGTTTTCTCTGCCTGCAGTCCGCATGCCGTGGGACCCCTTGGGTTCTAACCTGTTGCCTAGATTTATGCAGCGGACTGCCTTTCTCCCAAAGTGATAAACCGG…AGGTTGGTTTCACT; site = the 11-nt donor
Overview of reported recombinant UMI read abundance (log10) across a group of sequences:
Please reply with the value in numeric form only.

CGGTTAGCATGGACCGGTTTTCCCGGTAATCCGTATTTGTG (site CGGTTAGCTCA); 1.7
ATCTACACATGGACCGGTTTTCCCGGTAATCCGTATTTGAC (site ATCTAAACTGT); 1.21
CGGTATACATGGACCGGTTTTCCCGGTAATCCGTATTTGTT (site CGGTATACTAA); 1.62
TGTGCACCATGGACCGGTTTTCCCGGTAATCCGTATTTGAC (site TGTGCACCTGT); 0

Attention now shifts to the item below.
# lookup: recombinant UMI read abundance (log10) of TCCGCTACATGGACCGGTTTTCCCGGTAATCCGTATTTGTC (site TCCGCTACTGA) 0

----------
experiment: recombinant UMI read abundance after kanamycin selection (control-corrected) (log10(CPM+1)); higher = more efficient recombination; extreme values may be limits of the assay; sequences stand for … in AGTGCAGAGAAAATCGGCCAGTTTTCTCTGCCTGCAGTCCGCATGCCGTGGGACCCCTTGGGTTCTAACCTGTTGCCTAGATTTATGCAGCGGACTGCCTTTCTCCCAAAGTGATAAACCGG…AGGTTGGTTTCACT; site = the 11-nt donor
Overview of reported recombinant UMI read abundance (log10) across a group of sequences:

Some sequences with known recombinant UMI read abundance (log10) results, for comparison:
TAGTCGACATGGACCGGTTTTCCCGGTAATCCGTATTTGGG (site TAGTCGACTCC); 0.0301
AAAGCCCCATGGACCGGTTTTCCCGGTAATCCGTATTTGAA (site AAAGCCCCTTT); 0.767

Attention now shifts to the item below.
# lookup: recombinant UMI read abundance (log10) of AATGTAACATGGACCGGTTTTCCCGGTAATCCGTATTTGCT (site AAGGTAACTAG) 1.84
